TEST_SUMMARY: chemical genetic growth profiling, strain panel (AID 1159580);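 further: tested at 20 µM; growth read once vehicle control cultures reached saturation at 30 °C; 1 = growth at the plate median or of vehicle wells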
CONDITIONS_USED: S. cerevisiae deletion strains, growth OD, locus YCL069W, strain vba3, stronger effect = lower value
In all, about 5,500 compounds went through this assay and about 2,000 (36%) were called active. Inconclusive results (about 18%) are left out. The list shows a part of the results.
MEASUREMENT_TYPE: normalized growth
Would you mind answering with just the numeric figure?

*Q* Name the reported normalized growth value associated with the compound N#CC(O[C@@H]1O[C@H](CO[C@@H]2O[C@H](CO)[C@@H](O)[C@H](O)[C@H]2O)[C@@H](O)[C@H](O)[C@H]1O)c1ccccc1 (stereo not given in full)
*A* 0.988

*Q* Here is the next compound: "NNC(=O)c1ccncc1"
*A* 1.02

---

Quick reference for normalized growth among some compounds
TEST_SUMMARY: chemical genetic growth profiling, strain panel (AID 1159580)
CONDITIONS_USED: S. cerevisiae deletion strains, growth OD, locus YGL173C, strain kem1, stronger effect = lower value
About 2,000 (36%) of roughly 5,500 compounds were called active. About 18% were inconclusive and are not listed. The list shows a part of the results.

[
  {
    "COMPOUND": "COc1ccc2c(c1)c(CC(=O)OCC(=O)O)c(C)n2C(=O)c1ccc(Cl)cc1",
    "RESULT": "0.976 (inactive)"
  },
  {
    "COMPOUND": "CNC(=O)O/N=C\\C(C)(C)SC",
    "RESULT": "0.997 (inactive)"
  },
  {
    "COMPOUND": "COc1ccc2c(c1)c(CC(=O)O)c(C)n2C(=O)c1ccc(Cl)cc1",
    "RESULT": "0.985 (inactive)"
  }
]

# context switch: different compound, same normalized growth
*Q* Recorded normalized growth of CCC(C)C(=O)O[C@H]1[C@H](O)C2C(CN3CC(C)CCC3[C@@]2(C)O)C2C[C@]34O[C@]5(O)C(OC(=O)C(C)(O)CC)CC[C@@]3(C)C5C(OC(C)=O)[C@@H](OC(C)=O)C4[C@@]21O (some centres undefined) , please.
*A* 1.03 (inactive)

---

TEST_SUMMARY: chemical genetic growth profiling, strain panel (AID 1159580);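 further: tested at 20 µM; growth read once vehicle control cultures reached saturation at 30 °C; 1 = growth at the plate median or of vehicle wells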
CONDITIONS_USED: S. cerevisiae deletion strains, growth OD, locus YER015W, strain faa2
Screen size: about 5,500 compounds; about 2,000 (36%) were called active. Not shown: some 18% with an inconclusive outcome. No stated cut-off is given here; in the data, active means normalized growth mostly below about 0.91 (no sharp cut-off); inconclusive means no clear call, values can overlap the other calls; inactive means mostly above about 0.92. Some of the results follow.
Parameter call: string, one of active, inactive

[
  {
    "MOLECULE": "Nc1ccc(S(=O)(=O)c2ccc(N)cc2)cc1",
    "ASSIGNED_LABEL": "inactive"
  },
  {
    "MOLECULE": "CC1(C)CC[C@]2(C(=O)O)CC[C@]3(C)C(=CCC4[C@@]5(C)CC[C@@H](O)C(C)(C)C5CC[C@]43C)C2C1 (some centres undefined)",
    "ASSIGNED_LABEL": "inactive"
  },
  {
    "MOLECULE": "OC(CCN1CCCCC1)(c1ccccc1)C1CC2C=CC1C2 (centres undefined)",
    "ASSIGNED_LABEL": "inactive"
  },
  {
    "MOLECULE": "Nc1ccc(S(=O)(=O)Nc2ccnn2-c2ccccc2)cc1",
    "ASSIGNED_LABEL": "inactive"
  },
  {
    "MOLECULE": "CC(C)(C#N)O[C@@H]1O[C@H](CO)[C@@H](O)[C@H](O)[C@H]1O",
    "ASSIGNED_LABEL": "inactive"
  }
]

*Q* What outcome does the record of this test show for "COc1ccc2c3c([nH]c2c1)C(C)=NCC3" ?
*A* inactive

*Q* OC(CCN1CCCCC1)(c1ccccc1)C1CCCCC1 (centres undefined) ?
*A* inactive

*Q* What would you report for "Cc1cn([C@H]2C[C@H](N=[N+]=[N-])[C@@H](CO)O2)c(=O)[nH]c1=O" ?
*A* inactive

*Q* Please give the result for OC(CCN1CCCC1)(c1ccccc1)C1CCCCC1 (centres undefined) too.
*A* inactive

*Q* Same question, "Cc1cc(O)cc(C)c1Cl" this time
*A* active

*Q* One more molecule: "Cc1cc(O)ccc1Cl"
*A* inactive

---

TEST_SUMMARY: chemical genetic growth profiling, strain panel (AID 1159580);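 further: tested at 20 µM; growth read once vehicle control cultures reached saturation at 30 °C; 1 = growth at the plate median or of vehicle wells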
CONDITIONS_USED: S. cerevisiae deletion strains, growth OD, locus YPL106C, strain sse1, stronger effect = lower value
Among all 5,500 compounds or so, about 2,000 (36%) were called active. Another 18% or so got no clear call; they are omitted. This is one part of the list.
MEASUREMENT_TYPE: normalized growth
I only need the number, thanks.

These solved cases illustrate the format of a correct answer.
[
  {
    "COMPOUND": "Cc1cc(O)cc(=O)o1",
    "normalized growth": 1.01
  },
  {
    "COMPOUND": "COc1c(-c2coc3cc4c(cc3c2=O)CC(OC(C)=O)C(C)(C)O4)ccc2c1C=CC(C)(C)O2 (configuration not stated)",
    "normalized growth": 1.05
  },
  {
    "COMPOUND": "CC(C)CC(N(C)C)C1(c2ccc(Cl)cc2)CCC1 (configuration not stated)",
    "normalized growth": 0.988
  }
]

*Q* Name the recorded normalized growth for COC(=O)C[C@H]1C(C)(C)C2(O)OC34CC2C(=O)[C@]1(C)C3CC[C@]1(C)C4=CC(=O)O[C@H]1c1ccoc1 (some centres not stated) .
*A* 0.969

*Q* Could you do the same for "COc1cccc2c1C(=O)c1c(O)c3c(c(O)c1C2=O)C[C@@](O)(C(C)=O)C[C@@H]3O[C@H]1C[C@H](N)[C@H](O)[C@H](C)O1" , please?
*A* 1.1

*Q* Also need "Nc1c2c(nc3ccccc13)CCCC2" , thanks.
*A* 0.982

*Q* Then what about the compound "Cc1cc(O)cc(C)c1Cl" ?
*A* 1.1

*Q* Also check CC1(C)CC(O)C2(C)CCC3(C)C(=CCC4C5(C)CCC(O)C(C)(CO)C5CCC43C)C2C1 (configuration not stated)
*A* 1.05

*Q* Another compound to check: "C/C=C1\[C@H]2C=C(C)C[C@]1(N)c1ccc(=O)[nH]c1C2"
*A* 1.06

*Q* Moving on to the next compound: "Clc1ccccc1C(c1ccccc1)(c1ccccc1)n1ccnc1"
*A* 0.0995

*Q* Same for "N=C(N)SCCN"
*A* 1

*Q* Item: "CNCc1ccccc1"
*A* 1.01

*Q* Subsequent entry: "Cc1cc(O)ccc1Cl"
*A* 1.1

*Q* Then this compound: "O=C1c2c(O)cccc2Cc2cccc(O)c21"
*A* 0.919

*Q* Nc1c2c(nc3ccccc13)CCCC2O (configuration not stated) , same question.
*A* 1.01

---

TEST_SUMMARY: chemical genetic growth profiling, strain panel (AID 1159580);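 further: tested at 20 µM; growth read once vehicle control cultures reached saturation at 30 °C; 1 = growth at the plate median or of vehicle wells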
CONDITIONS_USED: S. cerevisiae deletion strains, growth OD, locus YJL095W, strain BCK1
The whole screen tested about 5,500 compounds, of which about 2,000 (36%) were called active. Another 18% or so got no clear call; they are omitted. Cut-off read from the data, not from the text of the source: active = normalized growth mostly below about 0.91 (no sharp cut-off); inconclusive = no clear call, values can overlap the other calls; inactive = mostly above about 0.92. The list shows a part of the results.
Just give me one of these, please: active, inactive

[
  {
    "COMPOUND": "Clc1ccc2c(c1)c1ccccc1n2CN1CCOCC1",
    "ASSIGNED_LABEL": "inactive"
  },
  {
    "COMPOUND": "O=P(O)(O)C(O)(Cc1cccnc1)P(=O)(O)O",
    "ASSIGNED_LABEL": "inactive"
  },
  {
    "COMPOUND": "CCN1C[C@]2(OC(=O)c3ccccc3NC(C)=O)CCC(OC)[C@]34C1[C@H](CC23)[C@@]1(O)CC(OC)[C@H]2CC4C1(O)[C@H]2OC (some centres undefined)",
    "ASSIGNED_LABEL": "inactive"
  },
  {
    "COMPOUND": "CCOC(=O)c1cc(CC)sc1NC(=O)c1ccc([N+](=O)[O-])o1",
    "ASSIGNED_LABEL": "active"
  },
  {
    "COMPOUND": "S=C(NCc1ccccc1)Nc1ccc(Cl)c(Cl)c1",
    "ASSIGNED_LABEL": "inactive"
  },
  {
    "COMPOUND": "CC(=O)OC1CC(OC(C)=O)C2(C)C(CC(OC(C)=O)C3(C)C4=CC(=O)OC(=O)C4(C)CCC32)C1(C)C (centres undefined)",
    "ASSIGNED_LABEL": "inactive"
  },
  {
    "COMPOUND": "C[N+](C)(C)C[C@H](O)CC(=O)[O-]",
    "ASSIGNED_LABEL": "inactive"
  },
  {
    "COMPOUND": "COC(=O)/C(C)=C\\CC12OC(C)(C)C3CC(C=C4C(=O)c5c(O)c6c(c(CCC(C)(C)Cl)c5OC431)OC1(C)CCC(=C(C)C)C6C1)C2=O (centres undefined)",
    "ASSIGNED_LABEL": "inactive"
  },
  {
    "COMPOUND": "O=C(Nc1ccc(Cl)cc1)SCc1c(Cl)cccc1Cl",
    "ASSIGNED_LABEL": "inactive"
  },
  {
    "COMPOUND": "COC(=O)c1cnn(-c2c(Cl)cccc2Cl)c1C=C(C#N)C#N",
    "ASSIGNED_LABEL": "inactive"
  }
]

*Q* Lab log entry: "S=C(Nc1ccc(Cl)cc1)SCc1c(Cl)cccc1Cl" — outcome as called in the assay?
*A* inactive

*Q* Would you mind doing CC1(C)CC[C@@]2(C(=O)O)C(C1)C1=CCC3[C@@]4(C)CC[C@H](O)C(C)(C)C4CC[C@@]3(C)[C@]1(C)C[C@@H]2O (some centres undefined) as well?
*A* inactive

*Q* Another compound to look at: CC(=O)O[C@H]1CC[C@@]2(C)C(CC[C@]3(C)C2C(=O)C=C2C4[C@@H](C)[C@H](C)CC[C@]4(C(=O)O)CC[C@]23C)C1(C)C (some centres undefined)
*A* inactive

*Q* Same read-out for CC1C(=O)OC2C1CCC1(C)C=CC(=O)C3(C)OC213 (centres undefined) ?
*A* inactive

*Q* Subsequent entry: "O=C(CSCc1csc2ccccc12)Nc1ccc(F)c(Cl)c1"
*A* inactive

*Q* Record: "O=S(=O)(NC(=S)Nc1ccc(Cl)c(Cl)c1)c1ccccc1"
*A* inactive

*Q* What would you report for CC(C)Cc1ccc(C(C)C(=O)Nc2nn(C)c3ccccc23)cc1 (centres undefined) ?
*A* inactive

*Q* How about "Cc1ccc(S(=O)(=O)n2c(Sc3ccc([N+](=O)[O-])cc3[N+](=O)[O-])nc3cc(C)ccc32)cc1" ?
*A* inactive

*Q* Another compound to check: "O=c1cc(CO)occ1O"
*A* inactive
